# Tested on: HOP-92
# MEASUREMENT_DESCRIPTION: NCI tumour cell line growth inhibition, 48 h
Calls of active or inactive are those of the source. Rule as the data show it: active = GI50 up to about 1.1 µM and inactive = higher.
ASSAY_ENDPOINT: GI50

# COMPOUND, GI50
rows = [
    ("CNC1C(O)CC(OC2C/C=C(\\C)C/C(C)=C/C=C/CCC(C)CNC(=O)/C=C/C=C/C2C)OC1C (stereo not given)", "0.451 µM (active)"),
    ("CC(OC(C)(C)C)[C@H](NC(=O)OCC(Cl)(Cl)Cl)C(=O)O (stereo not given in full)", "> 100 µM (inactive)"),
    ("CCc1cccc(CC)c1Nc1nc(-c2ccccc2-c2ccccc2)cs1", "46.6 µM (inactive)"),
    ("CCOC(OC1=C(C#N)CCCC1)C(CC)[Se]c1ccccc1 (stereo not given)", "25 µM (inactive)"),
    ("COc1cc(/C=C/C(=O)c2c([O-])on[n+]2-c2ccccc2)ccc1O", "2.4 µM (inactive)"),
]

I am curious: what GI50 value has been reported for CCN(CC)CCCC(C)NC(=O)c1cc(-c2nccn2C)nc2ccc(C)cc12 (stereo not given) ?
> 100 µM (inactive)

May I ask what GI50 has been recorded for COc1cc2c(cc1C)NC(=O)/C2=C/c1c(Cl)[nH]c2ccccc12 ?
11.2 µM (inactive)

Entry under review: COc1ccc(CCNC(=O)[C@H]2CCCC[C@@H]2CCO)cc1OC . Reported GI50?
> 100 µM (inactive)

Fill in the blank: the reported GI50 of COC(=O)C1=CN(C2CCCCC2)C2(c3ccccc3)c3ccccc3C(=O)OC(=O)C12 (stereo not given) is ____.
39 µM (inactive)

Name the reported GI50 value associated with the compound Brc1ccc(-c2nc(-c3ccc(Br)cc3)n(-c3ccccc3)n2)cc1
> 100 µM (inactive)

====

# System: EKVX
# MEASUREMENT_DESCRIPTION: NCI tumour cell line growth inhibition, 48 h
Calls of active or inactive are those of the source. Cut-off read from the data, not from the text of the source: active = GI50 up to about 1.1 µM and inactive = higher.
ASSAY_ENDPOINT: GI50

Entry Cc1ccc(S(=O)(=O)N2CCC[C@@H]2C(=O)O[C@@H]2CCC3CC=CC32)cc1 (stereo not given in full) , system EKVX: what GI50 was measured?
41.6 µM (inactive)

====

# System: SNB-75
# MEASUREMENT_DESCRIPTION: NCI tumour cell line growth inhibition, 48 h
The source made the active and inactive calls. No stated cut-off is given here; in the data, active = GI50 up to about 1.1 µM and inactive = higher.
ASSAY_ENDPOINT: GI50

// solved cases for GI50 follow
# COMPOUND, GI50
measured = [
    ("COc1ccc(-c2cc(-c3cc(OC)c(OC)c(OC)c3)cc(-c3cc4ccccc4oc3=O)n2)cc1", "2.51 µM (inactive)"),
    ("COc1cccc2c1C(=O)c1c(O)c3c(c(O)c1C2=O)C[C@H](O)C[C@@H]3OC1CC(N)C(O)C(C)O1 (stereo not given in full)", "1.87 µM (inactive)"),
    ("COc1cc2c(oc(=O)c3c4oc([Si](C)(C)C)cc4cc(OC)c23)c2cccc(O)c12", "36.4 µM (inactive)"),
    ("CN1CCN(/C(N)=C(\\C#N)C(=O)Nc2ccccc2)CC1", "> 100 µM (inactive)"),
    ("Cc1cc(OC(=O)Nc2ccc(Cl)cc2)ccc1C(=S)Nc1ccccc1", "49.9 µM (inactive)"),
]

Please give the measured GI50 for this compound: Cc1ccc(S(=O)(=O)NCc2cccc([N+](=O)[O-])c2)cc1
> 100 µM (inactive)

Value lookup for GI50; key = CCOC(=O)C(Cc1ccccc1)NC(=O)OC(C)(C)C (stereo not given)
> 100 µM (inactive)

Item under review: NCCc1c[nH]c2ccc(OC(=O)C(=O)O)cc12 . Reported GI50?
> 100 µM (inactive)

Look at this compound and give its reported GI50. N#CC(C#N)=C1SC(=N\c2ccccc2)/C(=N/c2ccccc2)N1c1ccccc1
30 µM (inactive)

// returns reported GI50 for input O=C(/C=C/C(Cl)(Cl)Cl)Nc1ccc(Cl)cc1
3.69 µM (inactive)

Where do the numbers come from? From ChEMBL document CHEMBL1201862.
